These measurements were taken from PubChem BioAssay (NCI).

- Test system: MOLT-4 leukemia
- Experiment Summary: NCI tumour cell line growth inhibition, 48 h; in the data active = GI50 below about 0.43 µM; inactive = the rest
# valid calls are true (1) for active, false (0) for inactive; nothing else

Cn1cc(C2=C(c3cn(CCCN/C(N)=N\[N+](=O)[O-])c4ccccc34)C(=O)NC2=O)c2ccccc21
false (0)
Nc1ncnc2c1c(-c1ccc(Oc3ccccc3)cc1)nn2C[C@H]1SSC[C@H]1O
true (1)

Inquiry: Which result was noted for this compound in the test: CCc1cc(Cc2cc(CC)cc(C(C)(C)C)c2O)c(O)c(C(C)(C)C)c1
Reply text: false (0)

Inquiry: Item: NC(CSC(c1ccccc1)(c1ccccc1)c1ccc(Br)cc1)C(=O)O (centres undefined)
Reply text: false (0)
